Each entry below carries its recorded mass density.
study_conditions: 463.15 K; 30000 kPa; Liquid; Vibrating tube method
Field: numeric (kg/m3). Do not append units.

Dear colleague, I am looking for the recorded mass density of the following compound: CCCCCCCCCCCCCCCC 692

---

study_conditions: 323.15 K; 10000 kPa; Liquid; Vibrating tube method
Quick reference for mass density among some compounds
Express the result in kg/m3 but write the number alone.

>>> numeric_readout("CCCCCC [hexane]")
644.2
>>> numeric_readout("CCCCCCCCCC [decane]")
716.2
>>> numeric_readout("CCCCCCCCCCCC [dodecane]")
735.3

State the recorded mass density for this entry: CCCCCCCCCCCCCCCC [hexadecane] 760.4

---

study_conditions: 373.15 K; 50000 kPa; Liquid; Vibrating tube method
observable: mass density (kg/m3)
The answer is to be given in kg/m3; state only the numeric part.

Please review the entries below; each comes with its answer.
>>> numeric_readout("CCCCCCCCCCCC")
732.5
>>> numeric_readout("CCCCCCCCCC")
714.1
>>> numeric_readout("CCCCCCCCCCCCCCCC")
756.5

Attention now shifts to the item below.
Param item = CCCCCC ; retrieve measured mass density. 646.6

---

study_conditions: 423.15 K; 1000 kPa; Liquid; Vibrating tube method
± gives the expanded uncertainty stated by the source.
The entries below come with measured mass density values attached.
Lab note: write values as number then unit, every time.

>>> result("CCCCCCCCCCCCCCCC")
"684.1 ± 3 kg/m3"
>>> result("CCCCCCCCCC")
"627.2 ± 3 kg/m3"

# lookup: mass density of CCCCCC 521.2 ± 3.1 kg/m3

Lookup CCCCCCCCCCCC 652.6 ± 3 kg/m3

---

study_conditions: 423.15 K; 20000 kPa; Liquid; Vibrating tube method
// mass density lookup, one value per entry
Numeric only. Scale: kg/m3

Please review the following examples before continuing.
>>> numeric_readout("CCCCCC")
573.2
>>> numeric_readout("CCCCCCCCCC")
655.8
>>> numeric_readout("CCCCCCCCCCCCCCCC")
705.5

Next item in the queue.
Recorded mass density for CCCCCCCCCCCC , please? 677.6

---

study_conditions: 348.15 K; 30000 kPa; Liquid; Vibrating tube method
observable: mass density (kg/m3)
Kindly provide the numeric value in kg/m3 only, without the unit symbol.

Completed entries (count: 3):
>>> numeric_readout("CCCCCCCCCCCCCCCC")
757.8
>>> numeric_readout("CCCCCC")
645.2
>>> numeric_readout("CCCCCCCCCCCC")
733.5

For the compound CCCCCCCCCC , what mass density is on record? 714.6

---

study_conditions: 348.15 K; 50000 kPa; Liquid; Vibrating tube method
observable: mass density (kg/m3)
Just the number please, in kg/m3, no unit attached.

Known results for compounds:
>>> numeric_readout("CCCCCC [hexane]")
662.6
>>> numeric_readout("CCCCCCCCCCCCCCCC [hexadecane]")
769.7
>>> numeric_readout("CCCCCCCCCC [decane]")
728.4

Look up mass density: CCCCCCCCCCCC [dodecane] 746.4

---

study_conditions: 463.15 K; 5000 kPa; Liquid; Vibrating tube method
Each entry below carries its recorded mass density.
The figure you give is taken to be in kg/m3; do not add the unit.

>>> numeric_readout("CCCCCC")
484.2

Query (compound): CCCCCCCCCCCC ; field requested: mass density 627.9

Now try CCCCCCCCCCCCCCCC . 661

Can you handle CCCCCCCCCC next? 600.3

Data origin, for the record: the NIST ThermoML archive (doi:10.1021/acs.jced.5b00613)
